Molecular target: recombinant CpLDH protein (Cryptosporidium parvum, UniProt Q9GT92, F198L/K295E/R251K)
Rule: MEAN CpLDH INHIBITION (%) of -40% or more gives met; anything lower gives not met.

compound	cat
CCCCCCCCCCCCCCCCOCC(O)CO (centres unmarked)	met
COc1ccc2c(c1)C=C([N+](=O)[O-])C(C1OC(C)(C)OC1C1COC(C)(C)O1)O2 (centres unmarked)	not met
Cc1c2ccc3ccccc3c2c[n+]2ccccc12.[Cl-]	met
COc1ccc(-c2cc(=O)c3c(OC)c(OC)c(OC)cc3o2)cc1	met
CN(C)c1ccc(/C=C2\C=Cc3ccccc32)cc1	met
[Mo] [NSC622116]	met
Nc1nc(SCCc2ccccc2)c2[nH]cnc2n1	met
Cn1c(=O)c2nc3sc4c(n3c2n(C)c1=O)C(=O)c1ccccc1C4=O	met
CC(=O)OCCN1c2ccccc2Sc2cnccc21	met
CCOC(=O)c1ccc(-c2cc(C)no2)[nH]1	met
N#Cc1cn([C@@H]2O[C@H](CO)[C@@H](O)[C@H]2O)c2ncnc(N)c12	met
COC(=O)C[S+]([O-])c1ccccc1 (centres unmarked)	met
O=C1OC(c2ccco2)=N/C1=C\c1ccc(Cl)c(Cl)c1	met
C/C(=N\N=C(/[Se])N1CC2CCC(CC2)C1)c1ccccn1	met
CN(C)C[C@H]1CC[C@@H](CN(C)C)C1=O.Cl	met
CCCCCn1cc2c3c(cccc31)C1C=C(C)CN(C)[C@@H]1C2.Cc1ccc(C(=O)OC(C(=O)O)C(OC(=O)c2ccc(C)cc2)C(=O)O)cc1 (centres unmarked)	met
Cc1ccccc1NC(=O)C(=O)C(C(=O)c1ccccc1F)C1OC(=O)c2ccccc21 (centres unmarked)	not met
COc1cc2c[n+](C)c3c4cc5c(cc4ccc3c2cc1OC)OCO5.[Cl-]	met
O=C1C(c2cnc3ccccc3n2)=C(O)c2ccccc21	met
CCCCCCCCCCCCCCCCCCOP(=O)([O-])OCC[N+](C)(C)C	met
C=C1CC(Cn2cc(Br)c(=O)[nH]c2=O)(c2ccc(-c3ccccc3)cc2)OC1=O (centres unmarked)	met
CC1=NC(C(C)C)C(=O)O1 (centres unmarked)	met
CCOC(=O)C(CC(C)C)NC(=O)C(Cc1ccc(N(CCCl)CCCl)cc1)NC(C)=O (centres unmarked)	not met
COc1cc(C[C@H]2c3cc(OC)c(OC)cc3CCN2C)c(Oc2cc3c(cc2OC)-c2c(OC)c(OC)cc4c2[C@H](C3)N(C)CC4)cc1OC	not met
C=Cc1cc(OC)c2c(c1)c(=O)oc1c2cc(OC)c2c(O)ccc(C3OC(C)C(O)C(C)(O)C3O)c21 (centres unmarked)	not met
COc1ccc(/C=C2\N=C(c3ccccc3)OC2=O)c(OCc2ccccc2)c1	met
COC(=O)c1ccccc1NC(=O)C(=O)CC(=O)c1ccccc1NC1=CC(=O)C(=O)c2ccccc21	not met
CCN1CCC(O)(/C=C/c2ccc(C)cc2)C(C(=O)/C=C/c2ccc(C)cc2)C1.Cl (centres unmarked)	not met
O=C1C(=O)c2ccccc2C(O)=C1CC=C(Cl)Cl	met
O=c1[nH]c2ccc(O)cc2o1	met
O=C(CC1(O)C(=O)Nc2c(Cl)cc(Cl)cc21)c1cccc2ccccc12 (centres unmarked)	not met
CC(=O)[O][Pb]([O]C(C)=O)([c]1ccccc1)[c]1ccccc1	not met
CC(C)CCCCCCCCCCCCC(=O)NCC(=O)NC1C(C)OC(Nc2ncnc3nc[nH]c23)C(O)C1O (centres unmarked)	met
O=C1Nc2c(Cl)cc(Cl)cc2C1=O	not met
CN(C)CCOc1ccc(I)cc1Cc1ccccc1.Cl	met
